# system: porcine brain αβ-tubulin (Sus scrofa, UniProt P02554)
# Sequence (P02554 whole entry): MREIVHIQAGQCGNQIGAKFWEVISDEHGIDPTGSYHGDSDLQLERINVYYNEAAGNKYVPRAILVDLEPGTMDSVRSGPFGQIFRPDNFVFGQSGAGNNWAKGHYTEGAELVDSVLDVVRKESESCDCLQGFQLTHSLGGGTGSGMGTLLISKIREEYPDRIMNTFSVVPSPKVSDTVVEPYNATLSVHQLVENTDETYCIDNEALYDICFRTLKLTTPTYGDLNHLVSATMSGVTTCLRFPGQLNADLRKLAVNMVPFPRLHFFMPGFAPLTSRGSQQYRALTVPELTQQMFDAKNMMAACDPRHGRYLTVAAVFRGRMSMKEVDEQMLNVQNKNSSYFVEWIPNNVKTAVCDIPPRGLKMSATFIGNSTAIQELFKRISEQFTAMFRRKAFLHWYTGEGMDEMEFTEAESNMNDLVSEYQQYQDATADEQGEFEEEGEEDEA
# Sequence (P02550 whole entry partner): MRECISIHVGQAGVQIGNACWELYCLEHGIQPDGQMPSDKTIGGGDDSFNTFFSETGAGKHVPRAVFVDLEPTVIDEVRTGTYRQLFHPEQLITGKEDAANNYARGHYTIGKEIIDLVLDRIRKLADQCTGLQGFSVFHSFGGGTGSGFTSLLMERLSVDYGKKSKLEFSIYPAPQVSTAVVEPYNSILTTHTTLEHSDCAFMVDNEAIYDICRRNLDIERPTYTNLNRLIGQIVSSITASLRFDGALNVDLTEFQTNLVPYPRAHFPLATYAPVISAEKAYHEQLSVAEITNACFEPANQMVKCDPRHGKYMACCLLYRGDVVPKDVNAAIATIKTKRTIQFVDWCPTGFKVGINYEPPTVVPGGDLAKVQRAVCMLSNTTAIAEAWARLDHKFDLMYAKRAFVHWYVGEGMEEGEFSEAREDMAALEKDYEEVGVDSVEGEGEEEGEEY
# assay_summary: Tubulin polymerization (turbidimetry at 340 nm)
# Format: biochemical
# condition_label: concentration required to induce 50% of the maximum αβ-tubulin polymerization achievable with the respective compound; 10 µM of porcine brain αβ-tubulin; turbidity at 340 nm; mean ± standard deviation; read-out: EC50 Tubulin polymerization
measured_endpoint: pEC50
Numbers only, as −log10 of the molar value.

**Query** What value of pEC50 has been recorded for this entry: Cc1nc2cc([C@@H]3CCN(C(=O)OC(C)(C)C)CCC[C@H](C)[C@H](O)[C@@H](C)C(=O)C(C)(C)[C@@H](O)CC(=O)O3)ccc2n1C [Compound 1]
**Result** 5.41

====

# system: porcine brain αβ-tubulin (Sus scrofa, UniProt P02554)
# assay_summary: Tubulin polymerization (turbidimetry at 340 nm)
# Assay type: biochemical
Param label: returns 1.0 when EC50 < 5 µM, returns 0.0 otherwise, including exact equality.

**Query** hey, is EC50 for `CCOC(=O)N1CCC[C@H](C)[C@H](O)[C@@H](C)C(=O)C(C)(C)[C@@H](O)CC(=O)O[C@H](c2ccc3c(c2)nc(C)n3C)CC1` lower than 5 µM or not?
**Result** 0.0

====

# Tested on: KB-31
# assay_summary: Human cancer cell growth inhibition, methylene blue staining, KB-31
# Assay type: cell-based
# condition_label: KB 3-1, 72 h, read-out: IC50 KB-31
measured_endpoint: IC50
Remember to quote the unit after the number.

**Query** Which value of IC50 has been reported for C/C(=C\c1csc(C)n1)[C@@H]1CCN(C(=O)OC(C)(C)C)CCC[C@H](C)[C@H](O)[C@@H](C)C(=O)C(C)(C)[C@@H](O)CC(=O)O1 [B, reference compound] in the records?
**Result** 31 nM

====

What pIC50 was measured for each of the following?
# Test system: PC-3M
# assay_summary: Human cancer cell growth inhibition, methylene blue staining, PC-3M
# Format: cell-based
# condition_label: PC-3M, read-out: IC50 PC-3M
Numbers only, as −log10 of the molar value.

Record excerpt, results attached:
>  <molecule>
Cc1nc2cc([C@@H]3CCN(C(=O)OCC(F)(F)F)CCC[C@H](C)[C@H](O)[C@@H](C)C(=O)C(C)(C)[C@@H](O)CC(=O)O3)ccc2n1C [Compound 3]

>  <pIC50>
8.20

$$$$
>  <molecule>
Cc1nc2cc([C@@H]3CCN(C(=O)OC(C)(C)C)C/C=C/[C@H](C)[C@H](O)[C@@H](C)C(=O)C(C)(C)[C@@H](O)CC(=O)O3)ccc2n1C [A, reference compound]

>  <pIC50>
6.01

$$$$

# map each molecule to its pIC50
1. Cc1nc2cc([C@@H]3CCN(c4ccc([N+](=O)[O-])c5nonc45)CCC[C@H](C)[C@H](O)[C@@H](C)C(=O)C(C)(C)[C@@H](O)CC(=O)O3)ccc2n1C [Compound 17]
2. C/C(=C\c1csc(C)n1)[C@@H]1C[C@@H]2O[C@@H]2CCC[C@H](C)[C@H](O)[C@@H](C)C(=O)C(C)(C)[C@@H](O)CC(=O)O1 [C, Epothilone A, reference compound]
3. CCOC(=O)N1CCC[C@H](C)[C@H](O)[C@@H](C)C(=O)C(C)(C)[C@@H](O)CC(=O)O[C@H](c2ccc3c(c2)nc(C)n3C)CC1 [Compound 2]
4. C/C(=C\c1csc(C)n1)[C@@H]1CCN(C(=O)OC(C)(C)C)CCC[C@H](C)[C@H](O)[C@@H](C)C(=O)C(C)(C)[C@@H](O)CC(=O)O1 [B, reference compound]

**Result**
6.61
8.47
7.91
6.90

Ref: patent EP1845096A1
